test system: HCT116; test: AC50 cell viability (CellTiter-Glo); higher = less potent; settings: 48 h
Structures can show the parent of a compound that is named as a salt.
Measure Name: AC50 cell viability (µM)
Please give a number only; it is taken to be in µM.

These recorded examples may help you get a feel for the data.
                                   compound         measure_name  experimental_value
0  CN1CCc2c(c3ccccc3n2Cc2ccc(C(=O)NO)cc2)C1  AC50 cell viability                10.5
1  C/C=C1\NC(=O)[C@H]2CSSCC/C=C\[C@H](CC(=O)N[C@H](C(C)C)C(=O)N2)OC(=O)[C@H](C(C)C)NC1=O  AC50 cell viability             0.00742
2  CN1CCN(CCCN2c3ccccc3Sc3ccc(C(F)(F)F)cc32)CC1 [Trifluoperazine hydrochloride]  AC50 cell viability                26.3

Lab note: next compound to report on.
Item under review: CN(C)CCOc1ccc(-c2nc(-c3ccncc3)c(-c3ccc4c(c3)CC/C4=N\O)[nH]2)cc1 . Reported AC50 cell viability? 11.8

----------
tested on: HCT116; assay: AC50 cell viability (CellTiter-Glo); higher = less potent; conditions: 48 h
Measure Name: AC50 cell viability

Example compounds with recorded AC50 cell viability:
In [3]: df
Out[3]:
                                   compound  experimental_value
0      Nc1nc2ccc(OC(F)(F)F)cc2s1 [Riluzole]             10.5 µM
1  ClC1=CC\2=C(NC(=O)\C(=C2N[C@@H]3CN4CCC3CC4)C5=NC6=C([NH]5)C=CC=C6)C=C1 [CHIR-124]            0.833 µM
2    CC(C)N(CCC(=O)c1ccc2ccccc2c1)Cc1ccccc1             20.9 µM
3  O=C(Nc1nnc(-c2ccco2)o1)c1cc(-c2ccccc2)nc2ccccc12 [STX-0119]             14.8 µM
4  N#Cc1ccnc(Nc2cc(C3CCN(C4COC4)CC3)cc(N3CCC(F)(F)C3)n2)c1 [GNE-3511]            0.833 µM
5  FC1=CC2=C3[N](CCN(CC3=C1)C(=O)N4CCCCC4)C=C2C/5=C(C(=O)NC5=O)\C6=CN=C7C=CC=C[N]67             11.8 µM
6  CC(C)Oc1cc(Nc2nc(N[C@@H](C)c3ccc(F)cn3)ncc2Cl)n[nH]1 [AZ-23]             5.25 µM

Kindly consider the entry below.
Requested read-out: AC50 cell viability. Entry: COc1ccc(/C=C\c2cc(OC)c(OC)c(OC)c2)cc1NC(=O)[C@H](N)CO [Ombrabulin] 0.148 µM

----------
// values below are reported efficacy
system: HCT116; test: efficacy (fitted maximal change in viability relative to DMSO control); higher = less cytotoxic (negative = loss of viability); conditions: 48 h
Just the number in %, nothing appended.

>>> df
                                   molecule  measure_name  units_label  experimental_value
0        CN1CC/C(CC1)=C3\c4ccccc4CCc2sccc23      efficacy            %               -73.5
1  COc1ccc([S+](=O)([O-])NCc2ccc(C(=O)NCCc3ccc(Cl)cn3)cc2)cc1      efficacy            %               -62.6
2  Cn1cnc(-c2cc3nccc(Oc4ccc(NC(=S)NC(=O)Cc5ccccc5)cc4F)c3s2)c1      efficacy            %               -59.3
3  CCN(CC)CCNC(=O)c1c(C)[nH]c(/C=C2\C(=O)Nc3ccc(F)cc32)c1C [Sunitinib malate]      efficacy            %               -98.2
4  Nc1ccccc1NC(=O)c1ccc(CNc2nccc(-c3cccnc3)n2)cc1      efficacy            %               -73.2
5  O=C\1NC(=O)\C(=C1C2=C[NH]C3=C2C=CC=C3)C4=C[NH]C5=C4C=CC=C5 [Bisindolylmaleimide]      efficacy            %               -85.7

Dear colleague, I am looking for the recorded efficacy of the following molecule: O=C(NO)c1cnc(NC2(c3ccccc3)CC2)nc1 -79.1

Repeat with CCc1c(C(=O)NNC(=O)[C@@H](O)c2cc(F)cc(F)c2)ccc(O)c1C -5.46

Attribution: the supplement of paper PMC10290057
